- target.of.assay: T1, IL-18 receptor (IL-18Rα / IL-18Rβ heterodimer) on HEK-Blue IL-18 reporter cells (UniProt Q13478 19-541; O95256 20-599, limits assumed)
- T1 sequence (looked up) 1: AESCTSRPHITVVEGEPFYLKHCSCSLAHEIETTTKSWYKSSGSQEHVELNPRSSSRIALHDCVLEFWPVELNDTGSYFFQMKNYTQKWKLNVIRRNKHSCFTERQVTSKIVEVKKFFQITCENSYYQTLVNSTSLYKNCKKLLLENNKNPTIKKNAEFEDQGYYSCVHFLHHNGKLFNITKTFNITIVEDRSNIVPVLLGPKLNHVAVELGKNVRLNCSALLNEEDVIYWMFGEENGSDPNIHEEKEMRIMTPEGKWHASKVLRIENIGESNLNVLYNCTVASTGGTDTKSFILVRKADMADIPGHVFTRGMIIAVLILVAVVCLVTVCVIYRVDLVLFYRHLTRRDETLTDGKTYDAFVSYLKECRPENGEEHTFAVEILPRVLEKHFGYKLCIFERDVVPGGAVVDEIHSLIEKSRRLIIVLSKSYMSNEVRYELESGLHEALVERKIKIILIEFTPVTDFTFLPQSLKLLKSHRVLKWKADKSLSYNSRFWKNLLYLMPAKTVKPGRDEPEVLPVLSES
- T1 sequence (looked up) 2: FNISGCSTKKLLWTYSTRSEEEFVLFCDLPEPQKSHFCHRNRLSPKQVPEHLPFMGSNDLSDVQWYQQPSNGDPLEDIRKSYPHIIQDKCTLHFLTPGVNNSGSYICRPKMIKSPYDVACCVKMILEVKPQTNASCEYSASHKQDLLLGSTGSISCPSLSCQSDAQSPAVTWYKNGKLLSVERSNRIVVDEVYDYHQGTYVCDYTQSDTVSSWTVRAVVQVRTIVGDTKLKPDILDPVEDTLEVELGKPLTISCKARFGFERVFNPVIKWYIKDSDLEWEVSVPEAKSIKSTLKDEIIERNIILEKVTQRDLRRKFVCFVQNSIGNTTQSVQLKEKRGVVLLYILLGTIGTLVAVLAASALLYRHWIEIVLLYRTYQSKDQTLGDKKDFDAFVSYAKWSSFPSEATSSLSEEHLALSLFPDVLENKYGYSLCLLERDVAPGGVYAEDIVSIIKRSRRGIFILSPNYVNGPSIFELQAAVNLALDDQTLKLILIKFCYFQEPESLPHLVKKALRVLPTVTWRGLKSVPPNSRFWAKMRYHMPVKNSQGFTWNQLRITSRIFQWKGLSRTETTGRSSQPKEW
- protocol.summary: cell-based or functional assay
quantity.kind: EC50-#1 (M), HEK-Blue reporter
Please reply with the bare figure in M and do not write the unit itself.

// field: EC50-#1 (M), HEK-Blue reporter; key: SEQ ID NO: 19 (stabilized human DR-IL-18; SEQ ID NO: 89 plus C38S/C68D) (ligand) YFGKLESKLSVIRNLNDQVLFIDQGNRPLFEDMTDSDSRDNAPRTIFIISKYSDSLARGLAVTISVKDEKISTLSCENKIISFKEMNPPDNIKDTKSDIIFFQRDVPGHSRKMQFESSSYEGYFLACEKERDLFKLILKKEDELGDRSIMFTVQNED ; value = 1.24e-10

For record SEQ ID NO: 17 (SEQ ID NO: 89 plus C38S/C68A) (ligand) YFGKLESKLSVIRNLNDQVLFIDQGNRPLFEDMTDSDSRDNAPRTIFIISKYSDSLARGLAVTISVKAEKISTLSCENKIISFKEMNPPDNIKDTKSDIIFFQRDVPGHSRKMQFESSSYEGYFLACEKERDLFKLILKKEDELGDRSIMFTVQNED the listed EC50-#1 (M), HEK-Blue reporter is 1.41e-10

Value of measured EC50-#1 (M), HEK-Blue reporter for the entry SEQ ID NO: 16 (SEQ ID NO: 89 plus C38S/C68G) (ligand) YFGKLESKLSVIRNLNDQVLFIDQGNRPLFEDMTDSDSRDNAPRTIFIISKYSDSLARGLAVTISVKGEKISTLSCENKIISFKEMNPPDNIKDTKSDIIFFQRDVPGHSRKMQFESSSYEGYFLACEKERDLFKLILKKEDELGDRSIMFTVQNED : 2.05e-10

Looking up SEQ ID NO: 20 (SEQ ID NO: 89 plus C38S/C68E) (ligand) YFGKLESKLSVIRNLNDQVLFIDQGNRPLFEDMTDSDSRDNAPRTIFIISKYSDSLARGLAVTISVKEEKISTLSCENKIISFKEMNPPDNIKDTKSDIIFFQRDVPGHSRKMQFESSSYEGYFLACEKERDLFKLILKKEDELGDRSIMFTVQNED , I see its EC50-#1 (M), HEK-Blue reporter listed as 1.35e-10

The recorded EC50-#1 (M), HEK-Blue reporter for SEQ ID NO: 21 (SEQ ID NO: 89 plus C38S/C68N) (ligand) YFGKLESKLSVIRNLNDQVLFIDQGNRPLFEDMTDSDSRDNAPRTIFIISKYSDSLARGLAVTISVKNEKISTLSCENKIISFKEMNPPDNIKDTKSDIIFFQRDVPGHSRKMQFESSSYEGYFLACEKERDLFKLILKKEDELGDRSIMFTVQNED is 1.28e-10

Item: SEQ ID NO: 6 (SEQ ID NO: 89 plus C38S/C68S) (ligand) YFGKLESKLSVIRNLNDQVLFIDQGNRPLFEDMTDSDSRDNAPRTIFIISKYSDSLARGLAVTISVKSEKISTLSCENKIISFKEMNPPDNIKDTKSDIIFFQRDVPGHSRKMQFESSSYEGYFLACEKERDLFKLILKKEDELGDRSIMFTVQNED | EC50-#1 (M), HEK-Blue reporter: 1.96e-10

For reference, reported EC50-#1 (M), HEK-Blue reporter for SEQ ID NO: 18 (SEQ ID NO: 89 plus C38S/C68V) (ligand) YFGKLESKLSVIRNLNDQVLFIDQGNRPLFEDMTDSDSRDNAPRTIFIISKYSDSLARGLAVTISVKVEKISTLSCENKIISFKEMNPPDNIKDTKSDIIFFQRDVPGHSRKMQFESSSYEGYFLACEKERDLFKLILKKEDELGDRSIMFTVQNED stands at 5.19e-11

GET /value?item= SEQ ID NO: 89 (second generation human DR-IL-18 variant 6-12) (ligand, Engineered variant; recombinant soluble analyte in SPR and cell assays) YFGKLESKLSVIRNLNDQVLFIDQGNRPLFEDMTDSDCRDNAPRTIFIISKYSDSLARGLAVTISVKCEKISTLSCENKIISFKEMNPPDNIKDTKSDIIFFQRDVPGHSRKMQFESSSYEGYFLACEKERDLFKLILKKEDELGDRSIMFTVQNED &field=EC50-#1 (M), HEK-Blue reporter returns 1.43e-10
